- target: human recombinant CCR4 receptor (Homo sapiens, UniProt P51679)
- Sequence (P51679 whole entry): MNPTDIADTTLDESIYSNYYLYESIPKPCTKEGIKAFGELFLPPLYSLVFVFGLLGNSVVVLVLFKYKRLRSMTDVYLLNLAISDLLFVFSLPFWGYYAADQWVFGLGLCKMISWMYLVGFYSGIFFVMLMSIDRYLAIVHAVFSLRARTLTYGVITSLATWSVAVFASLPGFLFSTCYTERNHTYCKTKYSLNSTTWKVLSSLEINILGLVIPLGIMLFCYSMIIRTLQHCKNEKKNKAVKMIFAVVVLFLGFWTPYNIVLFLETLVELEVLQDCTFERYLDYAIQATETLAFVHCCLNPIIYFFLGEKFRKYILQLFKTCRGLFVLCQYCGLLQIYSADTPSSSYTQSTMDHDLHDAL
- assay: FMAT whole cell binding assay (FB-MDC binding to CHO-K1 cells expressing CCR4)
- experimental conditions: inhibition of 2.8 nM FB-MDC binding to CHO-K1 cells stably expressing human recombinant CCR4; two hours incubation at room temperature; FMAT8100 reader
readout name: IC50 (nM)
# unit: nM | format: bare number

Example cases with answers are listed next.
{"columns": ["test smiles", "target", "unit tag", "test value"],
 "data": [
  ["COc1nc2ccccc2nc1NS(=O)(=O)c1cccc(Cl)c1Cl", "human recombinant CCR4 receptor (Homo sapiens, UniProt P51679)", "nM", 1580],
  ["O=S(=O)(Nc1nc2ccccc2nc1OCc1ccco1)c1cccs1", "human recombinant CCR4 receptor (Homo sapiens, UniProt P51679)", "nM", 2000]
]}

Request: Hello, I am looking for reported IC50 with human recombinant CCR4 receptor (Homo sapiens, UniProt P51679) for COc1nc2ccccc2nc1NS(=O)(=O)c1ccc(Cl)s1 . Could you help?
Result: 398

* * *

Structures can show the parent of a compound that is named as a salt.
readout name: melting point

{"columns": ["compound", "melting point"],
 "data": [
  ["COc1nc2ncc(Br)cc2nc1NS(=O)(=O)c1cccc(Cl)c1Cl", "230 to 231 °C"],
  ["COc1nc2cccnc2nc1NS(=O)(=O)c1cccc(Cl)c1Cl (as salt: TFA)", "238 to 239 °C"],
  ["COc1nc2cc(Br)cnc2nc1NS(=O)(=O)c1cccc(Cl)c1Cl", "233 to 234 °C"],
  ["COc1cc2nc(NS(=O)(=O)c3cccc(Cl)c3Cl)c(OC)nc2cc1OC", "215 °C"],
  ["COc1nc2cnccc2nc1NS(=O)(=O)c1cccc(Cl)c1Cl", "256 to 257 °C"]
]}

Request: Item COc1nc2cc(Cl)c(Cl)cc2nc1NS(=O)(=O)c1cccc(Cl)c1Cl has what recorded melting point?
Result: 283 to 285 °C
